Data credit: paper PMC7826789

- Test system: EPHB4
- Setup Conditions: Compound Concentration (nM):1000;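 also: KINOMEscan scanMAX binding as percent activity remaining versus control; lower means stronger binding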
Listing: Percent Control of selected compounds
Write down the numeric answer in % and omit the unit.

{"Compound": "CC(C)COC(=O)c1ccc2c(c1)/C(=C/Nc1ccc(S(N)(=O)=O)cc1)C(=O)N2 [GW416981X]", "Units": "%", "Percent Control": 100}
{"Compound": "COc1cc(C=NNc2ncnc3c2cnn3-c2ccccc2)ccc1O [GW513184X]", "Units": "%", "Percent Control": 100}
{"Compound": "Cl.O=C(Nc1ccc(Oc2ccc3[nH]c(NC(=O)c4ccccc4)nc3c2)cc1)Nc1cc(C(F)(F)F)ccc1F [GW709042A]", "Units": "%", "Percent Control": 84}

The reported EPHB4 Percent Control of COc1cc2ncn(-c3cc(O[C@H](C)c4ccccc4Cl)c(C(N)=O)s3)c2cc1OC [GSK237701A] is 85

The reported EPHB4 Percent Control of COc1cc(N2CCN(C(C)C)CC2)ccc1Nc1nc(Nc2ccc(F)cc2C(=O)NC[C@@H](O)CO)c2cc[nH]c2n1 [GSK1392956A] is 81

###

- System: ABL1-nonphosphorylated
- Setup Conditions: Compound Concentration (nM):1000
Listing: Percent Control of selected compounds
# answer = value followed by unit

Below are worked cases with known answers.
{"Compound": "NS(=O)(=O)c1ccc(N/N=C2\\C(=O)Nc3ccc(C(=O)NCCc4c[nH]cn4)cc32)cc1 [GW300660X]", "Percent Control": "100%"}
{"Compound": "NS(=O)(=O)c1ccc(Nc2ncc(-c3ccccc3)o2)cc1 [GW572399X]", "Percent Control": "81%"}
{"Compound": "COc1ccc(COc2ccc(Cc3cnc(N)nc3N)cc2OC)cc1 [GW632580X]", "Percent Control": "90%"}
{"Compound": "COc1cc2ncn(-c3cc(O[C@H](C)c4ccccc4Cl)c(C(N)=O)s3)c2cc1OC [GSK237701A]", "Percent Control": "59%"}
{"Compound": "CCS(=O)(=O)c1ccc(OC)c(Nc2ncc(-c3cccc(OC)c3)o2)c1 [GW580509X]", "Percent Control": "16%"}
{"Compound": "Cl.O=C(O[C@H]1CN[C@H](C#Cc2cc3ncnc(Nc4ccc5c(cnn5Cc5ccccc5)c4)c3s2)C1)N1CCOCC1 [GSK200398A]", "Percent Control": "84%"}

Please fill in: Percent Control reported for CC(C)COC(=O)c1ccc2c(c1)/C(=C/Nc1ccc(S(N)(=O)=O)cc1)C(=O)N2 [GW416981X] = 100%

Please fill in: Percent Control reported for COc1ccc2cc(-c3c(-c4ccncc4)nc(-c4ccc(S(C)(=O)=O)cc4C)n3C)ccc2c1 [SB-633825] = 66%

###

- Test system: BRK
- Construct: gene PTK6
- Setup Conditions: Compound Concentration (nM):1000
Readout Type: Percent Control (%)
Write down the numeric answer in % and omit the unit.

Below are worked cases with known answers.
{"Compound": "COc1ccc(COc2ccc(Cc3cnc(N)nc3N)cc2OC)cc1 [GW632580X]", "Measurement": 100}
{"Compound": "CCS(=O)(=O)c1ccc(OC)c(Nc2ncc(-c3cccc(OC)c3)o2)c1 [GW580509X]", "Measurement": 100}
{"Compound": "COc1cc2ncnc(Nc3ccc4c(cnn4Cc4ccccc4)c3)c2cc1OC.Cl [GW282449A]", "Measurement": 75}
{"Compound": "CCS(=O)(=O)c1ccc(OC)c(Nc2ncc(-c3cccc(F)c3)o2)c1 [GW621970X]", "Measurement": 100}
{"Compound": "C[C@@H](Oc1cc(-n2cnc3ccc(OC4CCN(C)CC4)cc32)sc1C(N)=O)c1ccccc1Cl [GSK579289A]", "Measurement": 77}

Please fill in: Percent Control reported for CC1=C(C(=O)Nc2ccc3[nH]ncc3c2)C(c2ccc3ccccc3c2)CC(=O)N1 (stereo not shown) [GSK270822A] = 80

Please fill in: Percent Control reported for CC(C)COC(=O)c1ccc2c(c1)/C(=C/Nc1ccc(S(N)(=O)=O)cc1)C(=O)N2 [GW416981X] = 100

###

- Tested on: PIP5K1C
- Setup Conditions: Compound Concentration (nM):1000
Labelling: Percent Control reported below 30% becomes 1.0; at or above becomes 0.0.

{"Molecule": "NS(=O)(=O)c1ccc(N/N=C2\\C(=O)Nc3ccc(C(=O)NCCc4c[nH]cn4)cc32)cc1 [GW300660X]", "Study Target": "PIP5K1C", "Discrete Label": 1.0}
{"Molecule": "Cl.O=C(O[C@H]1CN[C@H](C#Cc2cc3ncnc(Nc4ccc5c(cnn5Cc5ccccc5)c4)c3s2)C1)N1CCOCC1 [GSK200398A]", "Study Target": "PIP5K1C", "Discrete Label": 0.0}
{"Molecule": "COc1cccc(-n2ncc3c(N/N=C/c4ccncc4)ncnc32)c1 [GW784752X]", "Study Target": "PIP5K1C", "Discrete Label": 0.0}
{"Molecule": "COc1cccc(-c2c[nH]c3c(N/N=C/c4ccncc4)ncnc23)c1 [GW814408X]", "Study Target": "PIP5K1C", "Discrete Label": 1.0}
{"Molecule": "NS(=O)(=O)c1ccc(Nc2ncc(-c3ccccc3)o2)cc1 [GW572399X]", "Study Target": "PIP5K1C", "Discrete Label": 0.0}

Qu. Bench note: check whether NS(=O)(=O)c1ccc(N/N=C2\C(=O)Nc3ccc(-c4cnco4)cc32)cc1 shows Percent Control below 30%
Ans. 0.0

Qu. Bench note: check whether CCS(=O)(=O)c1ccc(OC)c(Nc2ncc(-c3cccc(OC)c3)o2)c1 [GW580509X] shows Percent Control below 30%
Ans. 1.0

Qu. Bench note: check whether CCS(=O)(=O)c1ccc(OC)c(Nc2ncc(-c3cccc(F)c3)o2)c1 [GW621970X] shows Percent Control below 30%
Ans. 1.0

###

- Test system: HIPK4
- Setup Conditions: Compound Concentration (nM):1000
Listing: Percent Control of selected molecules
# answer = value followed by unit

{"Molecule": "Cl.O=C(O[C@H]1CN[C@H](C#Cc2cc3ncnc(Nc4ccc5c(cnn5Cc5ccccc5)c4)c3s2)C1)N1CCOCC1 [GSK200398A]", "Measurement": "92%"}
{"Molecule": "CCc1ccc(Oc2nccc(-c3c(-c4ccc(F)cc4)ncn3C3CCNCC3)n2)cc1", "Measurement": "100%"}
{"Molecule": "NS(=O)(=O)c1ccc(N/N=C2\\C(=O)Nc3ccc(C(=O)NCc4ccncc4)cc32)cc1 [GW300657X]", "Measurement": "81%"}
{"Molecule": "Cc1cc(O)cc(C)c1/C=C/c1cncc(C(N)=O)c1 [GW435821X]", "Measurement": "100%"}
{"Molecule": "COc1ccc2c(-c3ccnc(Nc4cccc(OC(F)(F)F)c4)n3)cnn2n1 [GW810372X]", "Measurement": "29%"}
{"Molecule": "Cl.O=S1CCN(Cc2ccc(-c3ccc4ncnc(Nc5ccc(OCc6ccccc6)c(F)c5)c4c3)o2)CC1 [GW576924A]", "Measurement": "100%"}
{"Molecule": "COc1ccc2cc(-c3c(-c4ccncc4)nc(-c4ccc(S(C)(=O)=O)cc4C)n3C)ccc2c1", "Measurement": "63%"}
{"Molecule": "Cl.c1ccc(Cc2nc3ccc(Nc4ncnc5ccccc45)cc3[nH]2)cc1 [GR269666A]", "Measurement": "100%"}

Please fill in: Percent Control reported for CN1CCN(C(=O)c2ccc(NC(=O)Nc3ccc(N(C)c4ccnc(Nc5ccc(CS(C)(=O)=O)cc5)n4)cc3)cc2)CC1.Cl [GW830263A] = 74%

Please fill in: Percent Control reported for C[C@@H](Oc1cc(-n2cnc3ccc(OC4CCN(C)CC4)cc32)sc1C(N)=O)c1ccccc1Cl [GSK579289A] = 15%

Please fill in: Percent Control reported for NS(=O)(=O)c1ccc(N/N=C2\C(=O)Nc3ccc(Cl)cc32)cc1 [GW280670X] = 100%

Please fill in: Percent Control reported for NS(=O)(=O)c1ccc(N/N=C2\C(=O)Nc3ccc(C(=O)NCCc4c[nH]cn4)cc32)cc1 [GW300660X] = 100%

Please fill in: Percent Control reported for COc1cc2ncnc(Nc3ccc4c(cnn4Cc4ccccc4)c3)c2cc1OC.Cl [GW282449A] = 100%

###

- Tested on: TYK2(JH1domain-catalytic)
- Setup Conditions: Compound Concentration (nM):1000
Readout Type: Percent Control (%)
Write down the numeric answer in % and omit the unit.

Please fill in: Percent Control reported for COc1ccc2c(-c3ccnc(Nc4cccc(OC(F)(F)F)c4)n3)cnn2n1 [GW810372X] = 98

Please fill in: Percent Control reported for COc1cc2ncnc(Nc3ccc4c(cnn4Cc4ccccc4)c3)c2cc1OC.Cl [GW282449A] = 100

Please fill in: Percent Control reported for NS(=O)(=O)c1ccc(N/N=C2\C(=O)Nc3ccc(Cl)cc32)cc1 [GW280670X] = 98

Please fill in: Percent Control reported for COc1cccc(-n2ncc3c(N/N=C/c4ccncc4)ncnc32)c1 [GW784752X] = 88

Please fill in: Percent Control reported for C[C@@H](Oc1cc(-n2cnc3ccc(OC4CCN(C)CC4)cc32)sc1C(N)=O)c1ccccc1Cl [GSK579289A] = 100

Please fill in: Percent Control reported for COc1ccccc1-c1cc(/C=C2\C(=O)Nc3ncc(Br)cc32)cc(Br)c1O [GW442130X] = 76
